species on record: Sus scrofa; test: Inhibition of pig brain tubulin polymerization at 1 uM by spectrometric method relative to control; assay type: tissue-based
I'd be grateful if you could share measured inhibition for these entries.
Give a bare numeral; the unit % is implied.

Looking up COc1cc(-c2cccc3nc(-c4ccc(N)cc4)oc23)cc(OC)c1OC , I found its inhibition recorded as 11

Looking up COc1cc(-c2cccc3nc(-c4cccc(N)c4)oc23)cc(OC)c1OC , I found its inhibition recorded as 14

Looking up COc1cc(-c2cccc3nc(-c4ccc5cc[nH]c5c4)oc23)cc(OC)c1OC , I found its inhibition recorded as 40

Looking up COc1ccc(/C=C\c2cc(OC)c(OC)c(OC)c2)cc1O [COMBRETASTATIN A4] , I found its inhibition recorded as 52
